- Test system: human Factor XI mRNA
- test-details: Dose-dependent inhibition in HepB3 cells, lipofectin (Example 7)
- Format: cell-based
- condition-set: 9.4 nM, approx. 16 h
Attribute: percent inhibition of human Factor XI mRNA
I only need the number, in %, no unit after it.

Recorded result, 416850 (antisense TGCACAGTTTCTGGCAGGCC; 5-10-5 gapmer, wing sugar chemistry not given here, further chemistry not given here) [compound 416850] , percent inhibition of human Factor XI mRNA: 43

Recorded result, 416858 (antisense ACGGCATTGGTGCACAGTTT; 5-10-5 gapmer, wing sugar chemistry not given here, further chemistry not given here) [compound 416858] , percent inhibition of human Factor XI mRNA: 43

Recorded result, 416825 (antisense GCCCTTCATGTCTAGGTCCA; 5-10-5 gapmer, wing sugar chemistry not given here, further chemistry not given here) [compound 416825] , percent inhibition of human Factor XI mRNA: 34

---

- System: Factor XI protein
- test-details: Cynomolgus monkeys: plasma Factor XI protein ELISA (Example 29)
- Assay type: in vivo
- condition-set: escalating doses 5, 10, 25 mg/kg s.c., day 57
In the oligonucleotide strings, read from the 5' end, every base follows the letter of its sugar. An asterisk marks phosphorothioate; unmarked linkages are phosphodiester. Other units and linkages are bracketed, terminal groups are in braces. A string of capitals states the bases alone. e = 2'-O-(2-methoxyethyl) (MOE); [5mC] = 5-methylcytosine; d = 2'-deoxy (DNA)
Decision: Inhibition of Factor XI protein relative to the PBS control beneath 20% gives label 1; Inhibition of Factor XI protein relative to the PBS control meeting or exceeding 20% gives label 0.

The following substances have reported results that may help.
[
  {
    "substance": "ISIS 416858: gapmer of Table 8 (antisense eA*e[5mC]*eG*eG*e[5mC]*dA*dT*dT*dG*dG*dT*dG*d[5mC]*dA*d[5mC]*eA*eG*eT*eT*eT)",
    "assigned-category": "label 0"
  },
  {
    "substance": "ISIS 416838: gapmer of Table 6 (antisense eG*e[5mC]*eA*eA*e[5mC]*d[5mC]*dG*dG*dG*dA*dT*dG*dA*dT*dG*eA*eG*eT*eG*e[5mC])",
    "assigned-category": "label 1"
  },
  {
    "substance": "ISIS 416850: gapmer of Table 8 (antisense eT*eG*e[5mC]*eA*e[5mC]*dA*dG*dT*dT*dT*d[5mC]*dT*dG*dG*d[5mC]*eA*eG*eG*e[5mC]*e[5mC])",
    "assigned-category": "label 0"
  },
  {
    "substance": "ISIS 417002: gapmer of Table 8 (antisense eG*eG*dT*dG*d[5mC]*dA*d[5mC]*dA*dG*dT*dT*dT*d[5mC]*dT*dG*eG*e[5mC]*eA*eG*eG)",
    "assigned-category": "label 0"
  }
]

Consider now this further substance.
Qu. Dear colleague, could you confirm whether Inhibition of Factor XI protein relative to the PBS control of ISIS 416864: gapmer of Table 8 (antisense eG*eG*e[5mC]*eA*eG*d[5mC]*dG*dG*dA*d[5mC]*dG*dG*d[5mC]*dA*dT*eT*eG*eG*eT*eG) falls below 20%? Thanks.
Ans. label 1

---

- test-details: Tolerability in Sprague-Dawley rats: hematology assays (Example 23)
- Assay type: in vivo
- Design: unit not given here
- condition-set: blood
Attribute: Lymphocyte
Simply state the number, no unit and no words.

Worked cases, Lymphocyte given:
[
  {
    "biopolymer-sequence": "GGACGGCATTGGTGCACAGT (antisense; all C 5-methyl, all phosphorothioate, sugars by position not given here; MOE gapmer, 5-10-5) [ISIS 413482, 5-10-5 MOE gapmer]",
    "Lymphocyte": 11430
  },
  {
    "biopolymer-sequence": "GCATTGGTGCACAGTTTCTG (antisense; all C 5-methyl, all phosphorothioate, sugars by position not given here; MOE gapmer, 5-10-5) [ISIS 412224, 5-10-5 MOE gapmer]",
    "Lymphocyte": 16807
  },
  {
    "biopolymer-sequence": "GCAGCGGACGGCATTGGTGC (antisense; all C 5-methyl, all phosphorothioate, sugars by position not given here; MOE gapmer, 5-10-5) [ISIS 412225, 5-10-5 MOE gapmer]",
    "Lymphocyte": 13204
  },
  {
    "biopolymer-sequence": "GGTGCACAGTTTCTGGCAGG (all C 5-methyl, all phosphorothioate, sugars by position not given here; MOE gapmer) [ISIS 413481, 5-10-5 MOE gapmer]",
    "Lymphocyte": 12707
  }
]

// next entry
Recorded result, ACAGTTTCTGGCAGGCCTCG (antisense; all C 5-methyl, all phosphorothioate, sugars by position not given here; MOE gapmer, 5-10-5) [ISIS 412223, 5-10-5 MOE gapmer] , Lymphocyte: 16990
